system: PC-3 prostate; assay: NCI tumour cell line growth inhibition, 48 h
Catalogue of molecules with associated log10 TGI
The common logarithm of TGI in µM is what is listed.

Cc1cc2c(c(C=Nc3ccc([N+](=O)[O-])cc3)c1)OC1(C=C2)Oc2ccccc2C(=O)N1C (centres undefined) ... 1.65
CN(CCCNC(=O)c1cn(C)c2c1ccc1cc(Cl)c(Cl)cc12)CCCNC(=O)c1cn(C)c2c1ccc1cc(Cl)c(Cl)cc12 ... 1.44
O=CN1CCN(C(=O)c2cc(Cl)cc(Cl)c2)C1=S ... 1.55
Oc1ccc(CNCc2ccccc2)c2cccnc12 ... 1.78
Oc1c2cc(Br)cc1CCc1cc(Br)cc(c1O)CC2 ... 1.75
CCCCCC(O)[C@H]1C(=O)C[C@@H](O[Si](C)(C)C(C)(C)C)[C@@H]1/C=C/CCOCc1ccccc1 (some centres undefined) ... 1.49

Query (molecule): CN(C)CCn1c(=O)c2ccc3c4c(nn3CCN(C)C)c3cc(N)ccc3n(c1=O)c24 ; field requested: log10 TGI -0.94

Query (molecule): C#CCN=C(N/N=C/c1ccc([N+](=O)[O-])o1)NS(=O)(=O)c1cc(C)c(Cl)cc1SCC(N)=O ; field requested: log10 TGI 1.59

Query (molecule): COc1cc(/C=C2\CN(C)C/C(=C\c3cc(OC)c(OC)c(OC)c3)C2=O)cc(OC)c1OC ; field requested: log10 TGI 0.66

Query (molecule): N#CC(=S)Nc1ccc(Cl)c(Cl)c1 ; field requested: log10 TGI 1.65

###

test system: MDA-MB-435; test: NCI tumour cell line growth inhibition, 48 h
Where a SMILES comes first, the peptide text is derived from it.
Catalogue of compounds with associated TGI

Examples with answers:
c1cc(OCCN2CCCCCC2)ccc1CNc1ccc2nc(CCC3CCCCC3)[nH]c2c1 ... 3.35 µM
Nc1ncnc2c1ncn2C1C=CC(CP(=O)(O)O)C1 (centres undefined) ... > 100 µM
[O-][N+](CCO)(CCO)c1ncnc2nc[nH]c12 ... > 100 µM
O=CN1CCN(C(=O)c2cc(Cl)cc(Cl)c2)C1=S ... 28.1 µM
CN(/N=C/c1cccs1)c1ccc(Cl)cc1[N+](=O)[O-] ... > 100 µM
O=C(C#CP(=O)(O)c1ccccc1)c1ccccc1 ... > 100 µM

Query (compound): CC1(C)C=C(/C=N/Nc2ccc([N+](=O)[O-])cc2)C(C#N)=C(O)C1(C#N)C#N ; field requested: TGI > 100 µM

Query (compound): COc1cc(C#N)cc(OC)c1OCCOCCOc1c(OC)cc(C#N)cc1OC ; field requested: TGI > 100 µM

Query (compound): CC(C)CC(NC(=O)C(CC(C)C)NC(=O)C(Cc1cnc[nH]1)NC(=O)C(C)NC(=O)C(NC(=O)C(C)NC(=O)C(Cc1c[nH]c2ccccc12)NC(=O)C(CCC(=O)O)NC(=O)C(N)Cc1ccccc1)C(C)C)C(N)=O (centres undefined) (H-FEWAVAHLL-NH2; configuration not given here) ; field requested: TGI > 12.5 µM

###

Catalogue of molecules with associated GI50
test system: CCRF-CEM leukemia

Examples with answers:
ClCc1ccc(-c2ccc(Cn3cnc4c(Cl)nc(Cl)nc43)cc2)cc1 ... 2.36 µM
C/C(CC(=O)NNc1ccc([N+](=O)[O-])cc1)=N\Nc1ccc([N+](=O)[O-])cc1 ... 4.76 µM
O=C1C(=O)c2ccccc2-c2ccccc21 ... 1.5 µM
CCN(CC)CCOc1ccc(/C(=C(\C)Cc2ccc(OC)cc2)c2ccc(OC(=O)NCc3ccccc3)cc2)cc1 ... 2.34 µM

Form field - read-out: GI50; system: CCRF-CEM leukemia; submitted item: Cc1cccc2c(N=Nc3ccc(S(N)(=O)=O)cc3)c(O)[nH]c12 > 25 µM
